Where these numbers come from: patent US20230116972A1

# Target of assay: CYP2D6 (Homo sapiens)
# Construct: from tissue; host or cells: human liver microsomes (pooled in the time-dependent assay)
# Sequence (P10635 whole entry): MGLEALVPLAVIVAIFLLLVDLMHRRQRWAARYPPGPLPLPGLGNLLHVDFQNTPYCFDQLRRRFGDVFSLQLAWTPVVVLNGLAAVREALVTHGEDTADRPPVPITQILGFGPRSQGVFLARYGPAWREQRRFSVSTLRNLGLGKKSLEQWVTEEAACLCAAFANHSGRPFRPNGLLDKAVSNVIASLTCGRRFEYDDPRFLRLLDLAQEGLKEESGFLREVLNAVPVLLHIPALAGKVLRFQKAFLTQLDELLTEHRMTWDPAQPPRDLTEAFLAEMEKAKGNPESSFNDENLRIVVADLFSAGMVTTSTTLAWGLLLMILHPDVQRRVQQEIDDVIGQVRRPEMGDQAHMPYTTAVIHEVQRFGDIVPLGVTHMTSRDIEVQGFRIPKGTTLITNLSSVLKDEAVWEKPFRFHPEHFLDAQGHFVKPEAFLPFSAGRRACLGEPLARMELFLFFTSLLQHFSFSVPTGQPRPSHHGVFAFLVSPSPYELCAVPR
# Measurement protocol: time dependent inhibition of CYP450 in pooled human microsomes
# Type: in vitro ADME
# Reported conditions: pre-incubation 30 min (NO NADPH); read-out: CYP2D6 IC50
Observation type: pIC50
Numbers only, as −log10 of the molar value.

Recorded pIC50 of CO[C@H]1CC[C@H](NC(=O)c2nccc(-c3cncn3C)n2)CC1 , please.
5.04

---

# Target of assay: mouse CD38 (Mus musculus)
# Sequence (P56528 1-304): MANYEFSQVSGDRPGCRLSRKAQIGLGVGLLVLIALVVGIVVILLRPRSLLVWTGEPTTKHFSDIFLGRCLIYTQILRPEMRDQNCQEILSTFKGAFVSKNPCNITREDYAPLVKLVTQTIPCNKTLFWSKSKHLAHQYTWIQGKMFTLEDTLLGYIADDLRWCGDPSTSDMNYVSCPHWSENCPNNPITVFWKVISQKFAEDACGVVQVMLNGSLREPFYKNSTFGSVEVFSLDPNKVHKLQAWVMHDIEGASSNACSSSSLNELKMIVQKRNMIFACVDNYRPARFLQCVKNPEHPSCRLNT
# Measurement protocol: mouse recombinant CD38 enzyme assay (hydrolysis of NAD+)
# Reported conditions: read-out: mCD38 BioChem IC50
Observation type: IC50 (nM)
Give bare numbers, in nM.

Before answering, review these 5 worked examples.
[
  {
    "Entry smiles": "Cc1ccc(NC(=O)c2cccc(-c3cncs3)n2)cn1",
    "IC50 (nM)": 487
  },
  {
    "Entry smiles": "O=C(Nc1ccc(C(F)(F)F)nc1)c1nc(-n2ccnc2)ccc1F",
    "IC50 (nM)": 8
  },
  {
    "Entry smiles": "O=C(N[C@H]1C[C@@H](c2ccccc2)C1)c1nccc(-n2ccnc2)n1",
    "IC50 (nM)": 105
  },
  {
    "Entry smiles": "CC(C)(O)c1ccc(NC(=O)c2ccnc(-n3ccnc3)n2)cn1",
    "IC50 (nM)": 13.8
  },
  {
    "Entry smiles": "O=C(Nc1ccccc1)c1cc(-n2ccnc2)ccn1",
    "IC50 (nM)": 420
  }
]

Batch of 6 compounds: report IC50 for each.
1. CC(C)c1cc(C(=O)N[C@H]2CC[C@H](C(F)F)CC2)nc(-c2cncn2C)n1
2. O=C(N[C@H]1CC[C@H](C(F)F)CC1)c1nccc(-n2ccnc2)n1
3. O=C(Nc1ccc(C(F)F)nc1)c1ccnc(-n2ccnc2)n1
4. CO[C@H]1CC[C@H](NC(=O)c2cc(C3CC3)nc(-c3cncs3)n2)CC1
5. Cn1cncc1-c1cc(C(F)F)nc(C(=O)N[C@H]2CC[C@H](O)CC2)n1
6. O=C(Nc1ccc(C(F)F)nc1)c1cc(C(F)(F)F)nc(-c2cncs2)n1

1. 5
2. 33
3. 5
4. 33
5. 6.2
6. 185

Batch of 5 compounds: report IC50 for each.
1. Cn1cncc1-c1ccnc(C(=O)Nc2ccc(OC(F)F)nc2)n1
2. CO[C@H]1CC[C@H](NC(=O)c2ccnc(-c3cncn3C)n2)CC1
3. O=C(N[C@H]1CC[C@H](C(F)F)CC1)c1cc(C2CC2)nc(-n2ccnc2)n1
4. Cc1ccc(NC(=O)c2cc(C(F)(F)F)nc(-n3ccnc3)n2)cn1
5. CO[C@H]1C[C@H](NC(=O)c2nccc(-c3cncn3C)n2)C1

1: 4.4; 2: 2; 3: 4; 4: 7; 5: 90.8

Batch of 2 compounds: report IC50 for each.
1. Cc1ccc(C(=O)Nc2cccnc2)nc1-n1ccnc1
2. CO[C@H]1CC[C@H](NC(=O)c2cc(C(F)(F)F)nc(-c3cncn3C)n2)CC1

70
1

---

For each record, write down the corresponding pIC50.
# Target of assay: human CD38 (Homo sapiens, UniProt P28907)
# Sequence (P28907 1-300): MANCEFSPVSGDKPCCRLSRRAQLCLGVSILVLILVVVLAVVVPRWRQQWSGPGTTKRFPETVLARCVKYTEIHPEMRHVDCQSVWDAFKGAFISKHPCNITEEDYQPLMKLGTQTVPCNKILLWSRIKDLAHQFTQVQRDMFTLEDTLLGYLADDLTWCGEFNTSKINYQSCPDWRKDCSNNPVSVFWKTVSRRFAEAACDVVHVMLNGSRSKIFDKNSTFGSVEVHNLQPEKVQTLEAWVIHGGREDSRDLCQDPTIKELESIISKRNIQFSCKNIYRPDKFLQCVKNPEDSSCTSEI
# Measurement protocol: human recombinant CD38 enzyme assay (hydrolysis of NAD+)
# Format: biochemical
# Reported conditions: human recombinant CD38, 0.4 nM enzyme, 62.5 μM NAD+; read-out: hCD38 BioChem IC50
One number for each entry, as −log10 of the molar value.

[
  {
    "Entry smiles": "COCCO[C@H]1CC[C@H](NC(=O)c2nc(-n3ccnc3)ccc2F)CC1",
    "Target of assay": "human CD38 (Homo sapiens, UniProt P28907)",
    "Reported": 6.70
  },
  {
    "Entry smiles": "COC[C@H]1CC[C@H](NC(=O)c2ccnc(-c3cncs3)n2)CC1",
    "Target of assay": "human CD38 (Homo sapiens, UniProt P28907)",
    "Reported": 5.99
  },
  {
    "Entry smiles": "Cn1cncc1-c1ccnc(C(=O)Nc2ccc(OC(F)F)nc2)n1",
    "Target of assay": "human CD38 (Homo sapiens, UniProt P28907)",
    "Reported": 8.85
  },
  {
    "Entry smiles": "Cn1cncc1-c1ccnc(C(=O)N[C@H]2CC[C@H](C(C)(C)O)CC2)n1",
    "Target of assay": "human CD38 (Homo sapiens, UniProt P28907)",
    "Reported": 7.03
  },
  {
    "Entry smiles": "Cn1cncc1-c1cncc(C(=O)Nc2ccc(C(F)(F)F)nc2)n1",
    "Target of assay": "human CD38 (Homo sapiens, UniProt P28907)",
    "Reported": 8.40
  }
]

Batch of 4 molecules: report pIC50 for each.
1. Cn1cncc1-c1ccnc(C(=O)NC2CC3(COC3)C2)n1
2. CC(C)(O)c1cc(C(=O)Nc2ccc(C(F)F)nc2)nc(-n2ccnc2)n1
3. Cn1cncc1-c1nccc(C(=O)N[C@H]2CC[C@H](C(F)F)CC2)n1
4. CO[C@H]1CC[C@H](NC(=O)c2cc(C3CCC3)nc(-n3ccnc3)n2)CC1

[6.45, 6.64, 8.30, 7.25]

---

# Target of assay: mouse CD38 (Mus musculus)
# Measurement protocol: mouse recombinant CD38 enzyme assay (hydrolysis of NAD+)
# Reported conditions: read-out: mCD38 BioChem IC50
For each record, write down the corresponding IC50.
Answers are plain numbers, in nM.

Before answering, review these 4 worked examples.
[
  {
    "Entry smiles": "Cn1cncc1-c1ncc(Cl)c(C(=O)N[C@H]2CC[C@H](OC(F)F)CC2)n1",
    "Target of assay": "mouse CD38 (Mus musculus)",
    "IC50 [nM]": 10.6
  },
  {
    "Entry smiles": "COC(=O)N1CC2(CC(NC(=O)c3cccc(-n4ccnc4)n3)C2)C1",
    "Target of assay": "mouse CD38 (Mus musculus)",
    "IC50 [nM]": 46
  },
  {
    "Entry smiles": "CO[C@H]1CC[C@H](NC(=O)c2cc(C3CCC3)nc(-n3ccnc3)n2)CC1",
    "Target of assay": "mouse CD38 (Mus musculus)",
    "IC50 [nM]": 16
  },
  {
    "Entry smiles": "O=C(NC1CCOCC1)c1cccc(-n2ccnc2)n1",
    "Target of assay": "mouse CD38 (Mus musculus)",
    "IC50 [nM]": 122
  }
]

Here's the next entry for you.
Recorded IC50 of Cn1cncc1-c1nc(C(=O)Nc2ccc(OC(F)F)nc2)cc(C2CCOCC2)n1 , please.
0.7

---

For each record, write down the corresponding IC50.
# Target of assay: endogenous CD38 in HL60 cells (Homo sapiens, UniProt P28907)
# Construct: endogenous in cells
# Measurement protocol: cellular CD38 assay in HL60 cells (cellular NAD levels)
# Reported conditions: all-trans retinoic acid, 24 hours, read-out: hCD38 HL60 ATRA NAD Cell Diaphorase IC50
Give bare numbers, in nM.

[
  {
    "Entry smiles": "Cn1cncc1-c1nc(C(=O)N[C@H]2CC[C@H](C(F)F)CC2)cc(C2CCOCC2)n1",
    "Unit symbol": "nM",
    "IC50": 2070
  },
  {
    "Entry smiles": "COC(=O)N1CC2(CC(NC(=O)c3cccc(-n4ccnc4)n3)C2)C1",
    "Unit symbol": "nM",
    "IC50": 3760
  },
  {
    "Entry smiles": "Cc1cc(C(=O)N[C@H]2CC[C@H](C)CC2)nc(-n2ccnc2)n1",
    "Unit symbol": "nM",
    "IC50": 1580
  },
  {
    "Entry smiles": "O=C(NC1CCN(c2ccccc2)CC1)c1nccc(-n2ccnc2)n1",
    "Unit symbol": "nM",
    "IC50": 12500
  },
  {
    "Entry smiles": "Cn1cncc1-c1nc(C(=O)NC2CC3(C2)CC(F)(F)C3)cc(C(F)(F)F)n1",
    "Unit symbol": "nM",
    "IC50": 3150
  }
]

Batch of 3 compounds: report IC50 for each.
1. Cc1cc(C(=O)NC2CC3(C2)CC(F)(F)C3)nc(-c2cncn2C)n1
2. O=C(Nc1cccc(F)c1)c1cccc(-n2ccnc2)n1
3. Cn1cncc1-c1ccnc(C(=O)Nc2ccc(C(F)F)nc2)n1

1400
415
151

Batch of 8 compounds: report IC50 for each.
1. CO[C@H]1CC[C@H](NC(=O)c2cc(C3CCOCC3)nc(-c3cncn3C)n2)CC1
2. Cn1cncc1-c1ccnc(C(=O)N[C@H]2C[C@H](c3ccc(F)cc3)C2)n1
3. Cc1cccc(NC(=O)c2cccc(-n3ccnc3)n2)n1
4. Cn1cncc1-c1nc(C(=O)Nc2ccc(C(F)F)nc2)cc(C2CCC(F)(F)CC2)n1
5. Cn1cncc1-c1ccnc(C(=O)N[C@H]2CC[C@H](OCc3ccccc3)CC2)n1
6. COc1cc(C(=O)Nc2ccc(C(F)F)nc2)nc(-c2cncs2)c1
7. Cn1cncc1-c1ccnc(C(=O)N[C@H]2CCN(c3ccccc3)C2)n1
8. CO[C@H]1CC[C@H](NC(=O)c2cc(C(F)(F)F)nc(-c3cncn3C)n2)CC1

1. 2630
2. 2370
3. 13700
4. 882
5. 2790
6. 11700
7. 8770
8. 1970

Batch of 2 compounds: report IC50 for each.
1. COc1cc(C(=O)N[C@H]2CC[C@H](OC)CC2)nc(-n2ccnc2)n1
2. Cn1cncc1-c1cnc(N)c(C(=O)Nc2ccc(C(F)(F)F)nc2)n1

[2480, 1370]
